Below are compounds with their IC50 as measured on ACC2 (acetyl-CoA carboxylase 2) (Homo sapiens).
Sequence (O00763 39-2458 limits assumed): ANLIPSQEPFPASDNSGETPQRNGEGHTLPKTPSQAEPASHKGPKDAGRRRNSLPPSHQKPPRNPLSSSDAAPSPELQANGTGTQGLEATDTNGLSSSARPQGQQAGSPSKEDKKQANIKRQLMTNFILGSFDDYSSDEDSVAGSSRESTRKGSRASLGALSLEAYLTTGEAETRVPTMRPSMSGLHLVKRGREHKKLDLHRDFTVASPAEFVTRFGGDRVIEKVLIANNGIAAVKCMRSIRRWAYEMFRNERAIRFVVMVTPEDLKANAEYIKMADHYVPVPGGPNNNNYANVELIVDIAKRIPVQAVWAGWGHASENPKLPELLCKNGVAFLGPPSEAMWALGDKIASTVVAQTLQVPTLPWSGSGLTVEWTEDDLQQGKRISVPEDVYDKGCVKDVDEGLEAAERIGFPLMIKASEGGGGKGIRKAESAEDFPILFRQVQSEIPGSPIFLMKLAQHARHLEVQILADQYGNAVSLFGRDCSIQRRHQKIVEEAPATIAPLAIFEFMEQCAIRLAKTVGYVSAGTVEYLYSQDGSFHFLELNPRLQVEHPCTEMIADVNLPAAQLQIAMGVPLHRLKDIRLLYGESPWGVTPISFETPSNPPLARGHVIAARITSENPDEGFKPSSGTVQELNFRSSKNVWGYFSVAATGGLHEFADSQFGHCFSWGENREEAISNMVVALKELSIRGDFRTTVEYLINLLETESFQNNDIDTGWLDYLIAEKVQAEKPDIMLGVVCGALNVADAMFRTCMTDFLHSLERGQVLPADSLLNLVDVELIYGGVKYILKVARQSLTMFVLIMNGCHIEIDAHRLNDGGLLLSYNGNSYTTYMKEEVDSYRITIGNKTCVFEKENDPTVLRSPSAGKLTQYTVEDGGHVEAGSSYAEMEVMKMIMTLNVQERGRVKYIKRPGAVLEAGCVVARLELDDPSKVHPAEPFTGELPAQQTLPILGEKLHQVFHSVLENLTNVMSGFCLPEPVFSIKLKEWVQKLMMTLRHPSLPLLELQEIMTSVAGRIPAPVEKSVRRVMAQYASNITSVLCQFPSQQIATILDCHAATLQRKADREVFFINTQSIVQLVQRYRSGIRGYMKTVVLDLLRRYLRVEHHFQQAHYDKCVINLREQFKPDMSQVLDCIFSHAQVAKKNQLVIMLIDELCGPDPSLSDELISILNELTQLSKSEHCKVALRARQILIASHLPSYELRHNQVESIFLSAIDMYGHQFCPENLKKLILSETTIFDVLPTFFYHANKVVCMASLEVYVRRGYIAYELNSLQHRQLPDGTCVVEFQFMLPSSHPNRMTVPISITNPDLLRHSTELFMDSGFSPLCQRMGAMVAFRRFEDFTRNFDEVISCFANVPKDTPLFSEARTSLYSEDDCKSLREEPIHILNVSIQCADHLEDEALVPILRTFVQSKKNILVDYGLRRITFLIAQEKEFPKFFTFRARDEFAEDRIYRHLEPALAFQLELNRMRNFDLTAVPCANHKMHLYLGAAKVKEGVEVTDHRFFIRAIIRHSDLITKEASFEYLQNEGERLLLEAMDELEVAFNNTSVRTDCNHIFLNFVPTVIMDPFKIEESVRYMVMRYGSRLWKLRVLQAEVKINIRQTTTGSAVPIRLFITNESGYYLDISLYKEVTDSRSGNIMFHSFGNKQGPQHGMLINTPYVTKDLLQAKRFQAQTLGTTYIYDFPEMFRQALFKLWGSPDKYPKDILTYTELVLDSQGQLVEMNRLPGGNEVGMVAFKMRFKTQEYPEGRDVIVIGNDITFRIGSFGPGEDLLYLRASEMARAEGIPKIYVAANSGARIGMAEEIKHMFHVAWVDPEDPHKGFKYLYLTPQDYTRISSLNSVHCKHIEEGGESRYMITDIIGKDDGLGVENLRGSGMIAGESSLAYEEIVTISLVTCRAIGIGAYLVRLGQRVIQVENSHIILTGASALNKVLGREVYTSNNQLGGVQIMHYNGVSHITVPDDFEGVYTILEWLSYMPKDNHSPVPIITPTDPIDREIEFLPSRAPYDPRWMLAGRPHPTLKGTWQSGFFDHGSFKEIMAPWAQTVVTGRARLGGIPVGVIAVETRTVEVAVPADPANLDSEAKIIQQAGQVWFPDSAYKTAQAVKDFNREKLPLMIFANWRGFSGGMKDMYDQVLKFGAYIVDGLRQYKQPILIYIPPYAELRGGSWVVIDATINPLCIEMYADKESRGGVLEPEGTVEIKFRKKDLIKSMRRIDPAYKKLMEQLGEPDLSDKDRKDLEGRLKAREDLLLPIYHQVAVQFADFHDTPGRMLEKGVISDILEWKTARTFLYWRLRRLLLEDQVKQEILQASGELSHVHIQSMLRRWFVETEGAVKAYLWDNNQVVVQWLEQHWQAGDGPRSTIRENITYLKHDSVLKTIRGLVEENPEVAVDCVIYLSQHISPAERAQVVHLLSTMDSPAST

>  <compound>
COC1CCC2(CC1)NC(=O)C(c1cc(-c3cc(F)ccc3F)ccc1C)=C2O (stereo not shown)

>  <result>
> 20 µM

$$$$
>  <compound>
CC[C@]1(OC)CC[C@@]2(CC1)NC(=O)C(c1c(C)ccc(-c3ccc(Cl)cc3)c1C)=C2O

>  <result>
6.9 µM

$$$$
>  <compound>
Cc1ccc(-c2cc(F)c(F)c(F)c2)cc1C1=C(O)C2(CCOCC2)NC1=O

>  <result>
> 20 µM

$$$$

INPUT: State the measured IC50 (ACC2 (acetyl-CoA carboxylase 2) (Homo sapiens)) of Cc1ccc(-c2ccc(Cl)cc2)cc1C1=C(O)C(C)(C2CCCCC2)OC1=O (stereo not shown)
OUTPUT: > 20 µM

* * *

// log10(IC50) lookup, one value per entry
- measurement-target: recombinant human ACC1 (acetyl-CoA carboxylase 1) (Homo sapiens)
- Construct: NM_198834, amino acids 39—end; FLAG (C)
- test-description: Human ACC1 enzyme assay (HTRF ADP detection)
- test-context: 50 μM ATP, 20 μM acetyl-CoA, 15 min pre-incubation, 20 min at 22° C.; read-out: ACC 1 IC50
The base-10 logarithm of IC50, taken with IC50 in nM, is what appears here.

Solved entries:
>  <molecule>
Cc1ccc(-c2ccc(Cl)cc2)c(C)c1C1=C(O)C2(CCC(OCC(F)(F)F)CC2)OC1=O (centres unmarked) [Example 2-32]

>  <measurement-target>
recombinant human ACC1 (acetyl-CoA carboxylase 1) (Homo sapiens)

>  <outcome-measure>
log10(IC50)

>  <recorded-number>
2.65

$$$$
>  <molecule>
O=C1N[C@]2(CC[C@@H](OCC(F)(F)F)CC2)C(O)=C1c1cc(-c2ccc(Cl)cc2)ccc1Cl [Example 1-29]

>  <measurement-target>
recombinant human ACC1 (acetyl-CoA carboxylase 1) (Homo sapiens)

>  <outcome-measure>
log10(IC50)

>  <recorded-number>
2.43

$$$$

INPUT: Indicate the recorded log10(IC50) value for this molecule: Cc1ccc(-c2ccc(F)cc2)cc1C1=C(O)[C@]2(CC[C@@]3(CCCO3)CC2)OC1=O [Example 2-28]
OUTPUT: 2.15

INPUT: Indicate the recorded log10(IC50) value for this molecule: Cc1ccc(-c2cc(F)c(F)c(F)c2)cc1C1=C(O)C2(CCOCC2)NC1=O [Example 1-36]
OUTPUT: 2.90

INPUT: Indicate the recorded log10(IC50) value for this molecule: CCCC1CCC2(CC1)CC(=O)C(c1cc(-c3ccc(Cl)cc3)ccc1C)=C2O (centres unmarked) [Example 6-6]
OUTPUT: 2.97

* * *

- measurement-target: recombinant human ACC1 (acetyl-CoA carboxylase 1) (Homo sapiens)
- Construct: NM_198834, amino acids 39—end; FLAG (C)
- test-description: Human ACC1 enzyme assay (HTRF ADP detection);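 note: ADP by-product quantified by competitive HTRF immunoassay with europium cryptate anti-ADP antibody and d2-labelled ADP, read after 1 h binding at 22 °C, enzyme near 2.5 ng/µl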
- test-context: 50 μM ATP, 20 μM acetyl-CoA, 15 min pre-incubation, 20 min at 22° C.; read-out: ACC 1 IC50
// IC50 lookup, one value per entry
Answer with a number only, understood to be in nM.

Solved entries:
>  <molecule>
Cc1ccc(-c2cccc(Cl)c2)cc1C1=C(O)C2(CCCCCC2)OC1=O [Example 2-50]

>  <IC50, nM>
903

$$$$
>  <molecule>
Cc1ccc(-c2ccc(Cl)cc2)cc1C1=C(O)CC(C)CC1=O (stereo not shown) [Example 7-1]

>  <IC50, nM>
678

$$$$
>  <molecule>
COCCC1(C)NC(=O)C(c2cc(-c3ccc(Cl)cc3)ccc2C)=C1O (stereo not shown) [Example 1-47]

>  <IC50, nM>
923

$$$$
>  <molecule>
COCC1CCCC2(C1)NC(=O)C(c1cc(-c3ccc(Cl)cc3)ccc1Cl)=C2O (stereo not shown) [Example 1-52]

>  <IC50, nM>
1270

$$$$
>  <molecule>
Cc1ccc(-c2ccc(Cl)cc2)cc1C1=C(O)C2(CCC3(CC2)OCCO3)OC1=O [Example 2-15]

>  <IC50, nM>
204

$$$$

INPUT: State the measured IC50 (recombinant human ACC1 (acetyl-CoA carboxylase 1) (Homo sapiens)) of COCC1CCC2(CC1)NC(=O)C(c1cc(-c3ccc(Cl)cc3)ccc1Cl)=C2O (stereo not shown) [Example 1-54]
OUTPUT: 220

INPUT: State the measured IC50 (recombinant human ACC1 (acetyl-CoA carboxylase 1) (Homo sapiens)) of CC1(C)OC(=O)C(c2cc(-c3ccc(Cl)cc3)ccc2Cl)=C(O)C1(C)C [Example 10-1]
OUTPUT: 1370

INPUT: State the measured IC50 (recombinant human ACC1 (acetyl-CoA carboxylase 1) (Homo sapiens)) of COCC1CCC2(CC1)NC(=O)C(c1c(C)ccc(-c3ccc(Cl)cc3)c1C)=C2O (stereo not shown) [Example 1-53]
OUTPUT: 506

INPUT: State the measured IC50 (recombinant human ACC1 (acetyl-CoA carboxylase 1) (Homo sapiens)) of CCOC1CCC2(CC1)NC(=O)C(c1c(C)cc(C)c(-c3ccc(Cl)cc3)c1C)=C2O (stereo not shown) [Example 1-75]
OUTPUT: 7970

INPUT: State the measured IC50 (recombinant human ACC1 (acetyl-CoA carboxylase 1) (Homo sapiens)) of CC[C@]1(OC)CC[C@@]2(CC1)NC(=O)C(c1c(C)ccc(-c3ccc(F)cc3)c1C)=C2O [Example 1-89]
OUTPUT: 858

INPUT: State the measured IC50 (recombinant human ACC1 (acetyl-CoA carboxylase 1) (Homo sapiens)) of Cc1ccc(-c2ccc(Cl)cc2)cc1C1=C(O)C2(CCCC2)CC1=O [Example 6-4]
OUTPUT: 333

INPUT: State the measured IC50 (recombinant human ACC1 (acetyl-CoA carboxylase 1) (Homo sapiens)) of Cc1ccc(-c2ccc(Cl)cc2)cc1C1=C(O)C(C)(C2CCCCC2)OC1=O (stereo not shown) [Example 2-40]
OUTPUT: 1220

INPUT: State the measured IC50 (recombinant human ACC1 (acetyl-CoA carboxylase 1) (Homo sapiens)) of Cc1ccc(-c2ccc(Cl)cc2Cl)cc1C1=C(O)C2(CCCCC2)CC1=O [Example 6-2]
OUTPUT: 337

INPUT: State the measured IC50 (recombinant human ACC1 (acetyl-CoA carboxylase 1) (Homo sapiens)) of Cc1ccc(-c2ccc(Cl)cc2)c(C)c1C1=C(O)C2(CCC(C)CC2)NC1=O (stereo not shown) [Example 1-4]
OUTPUT: 460

INPUT: State the measured IC50 (recombinant human ACC1 (acetyl-CoA carboxylase 1) (Homo sapiens)) of CC1(C)COC2(CCC3(CC2)NC(=O)C(c2cc(-c4ccc(Cl)cc4)ccc2Cl)=C3O)OC1 [Example 1-65]
OUTPUT: 934

INPUT: State the measured IC50 (recombinant human ACC1 (acetyl-CoA carboxylase 1) (Homo sapiens)) of Cc1ccc(-c2ccc(Cl)cc2)cc1C1=C(O)C2(CCCCC2)OC1=O [Example 2-10]
OUTPUT: 161

INPUT: State the measured IC50 (recombinant human ACC1 (acetyl-CoA carboxylase 1) (Homo sapiens)) of Cc1cc(C)c(-c2ccc(Cl)cc2)cc1C1=C(O)C2(CCCCCC2)OC1=O [Example 2-43]
OUTPUT: 504

INPUT: State the measured IC50 (recombinant human ACC1 (acetyl-CoA carboxylase 1) (Homo sapiens)) of Cc1ccc(-c2ccc(Cl)cc2)cc1C1=C(O)C(C(C)(C)C)OC1=O (stereo not shown) [Example 2-35]
OUTPUT: 1020

INPUT: State the measured IC50 (recombinant human ACC1 (acetyl-CoA carboxylase 1) (Homo sapiens)) of Cc1ccc(-c2ccc(Cl)cc2)cc1C1=C(O)C2(CCC(OCC(F)(F)F)CC2)NC1=O (stereo not shown) [Example 1-33]
OUTPUT: 359

INPUT: State the measured IC50 (recombinant human ACC1 (acetyl-CoA carboxylase 1) (Homo sapiens)) of Cc1ccc(-c2ccc(Cl)cc2)c(C)c1C1=C(O)C2(CCC3(CCCO3)CC2)NC1=O (stereo not shown) [Example 1-34]
OUTPUT: 470

INPUT: State the measured IC50 (recombinant human ACC1 (acetyl-CoA carboxylase 1) (Homo sapiens)) of Cc1ccc(-c2ccc(Cl)cc2)cc1C1=C(O)C2(CCC3(CC2)OCC(C)CO3)NC1=O (stereo not shown) [Example 1-66]
OUTPUT: 409

INPUT: State the measured IC50 (recombinant human ACC1 (acetyl-CoA carboxylase 1) (Homo sapiens)) of Cc1ccc(-c2ccc(Cl)cc2)cc1C1=C(O)C(C)(C2CC2)NC1=O (stereo not shown) [Example 1-86]
OUTPUT: 541

INPUT: State the measured IC50 (recombinant human ACC1 (acetyl-CoA carboxylase 1) (Homo sapiens)) of Cc1ccc(-c2ccc(Cl)cc2)c(C)c1C1=C(O)C2(CCC3(CC2)OCCO3)NC1=O [Example 1-70]
OUTPUT: 675

INPUT: State the measured IC50 (recombinant human ACC1 (acetyl-CoA carboxylase 1) (Homo sapiens)) of Cc1ccc(-c2ccc(Cl)cc2)cc1C1=C(O)C2(CCCC2)NC1=O [Example 1-85]
OUTPUT: 340

INPUT: State the measured IC50 (recombinant human ACC1 (acetyl-CoA carboxylase 1) (Homo sapiens)) of Cc1ccc(-c2ccc(Cl)cc2)cc1C1=C(O)C2(CCCCCC2)CC1=O [Example 6-7]
OUTPUT: 467

INPUT: State the measured IC50 (recombinant human ACC1 (acetyl-CoA carboxylase 1) (Homo sapiens)) of Cc1ccc(-c2ccc(C)c(C3=C(O)C4(CCCCC4)CC3=O)c2)cc1 [Example 6-1]
OUTPUT: 655

INPUT: State the measured IC50 (recombinant human ACC1 (acetyl-CoA carboxylase 1) (Homo sapiens)) of COCC1CCCC2(C1)NC(=O)C(c1cc(-c3ccc(Cl)cc3)ccc1C)=C2O (stereo not shown) [Example 1-51]
OUTPUT: 473

INPUT: State the measured IC50 (recombinant human ACC1 (acetyl-CoA carboxylase 1) (Homo sapiens)) of Cc1cc(C)c(-c2ccc(Cl)cc2)cc1C1=C(O)C2(CCCCC2)SC1=O [Example 3-3]
OUTPUT: 340

INPUT: State the measured IC50 (recombinant human ACC1 (acetyl-CoA carboxylase 1) (Homo sapiens)) of Cc1ccc(-c2ccc(F)c(F)c2)cc1C1=C(O)C2(CCOCC2)NC1=O [Example 1-37]
OUTPUT: 810
